Reference source: patent US20220162192A1

Biological target: Recombinant wild type LRRK2 protein (Homo sapiens)
Construct: purchased Life Technologies PR8604B
Sequence (Q5S007 whole entry): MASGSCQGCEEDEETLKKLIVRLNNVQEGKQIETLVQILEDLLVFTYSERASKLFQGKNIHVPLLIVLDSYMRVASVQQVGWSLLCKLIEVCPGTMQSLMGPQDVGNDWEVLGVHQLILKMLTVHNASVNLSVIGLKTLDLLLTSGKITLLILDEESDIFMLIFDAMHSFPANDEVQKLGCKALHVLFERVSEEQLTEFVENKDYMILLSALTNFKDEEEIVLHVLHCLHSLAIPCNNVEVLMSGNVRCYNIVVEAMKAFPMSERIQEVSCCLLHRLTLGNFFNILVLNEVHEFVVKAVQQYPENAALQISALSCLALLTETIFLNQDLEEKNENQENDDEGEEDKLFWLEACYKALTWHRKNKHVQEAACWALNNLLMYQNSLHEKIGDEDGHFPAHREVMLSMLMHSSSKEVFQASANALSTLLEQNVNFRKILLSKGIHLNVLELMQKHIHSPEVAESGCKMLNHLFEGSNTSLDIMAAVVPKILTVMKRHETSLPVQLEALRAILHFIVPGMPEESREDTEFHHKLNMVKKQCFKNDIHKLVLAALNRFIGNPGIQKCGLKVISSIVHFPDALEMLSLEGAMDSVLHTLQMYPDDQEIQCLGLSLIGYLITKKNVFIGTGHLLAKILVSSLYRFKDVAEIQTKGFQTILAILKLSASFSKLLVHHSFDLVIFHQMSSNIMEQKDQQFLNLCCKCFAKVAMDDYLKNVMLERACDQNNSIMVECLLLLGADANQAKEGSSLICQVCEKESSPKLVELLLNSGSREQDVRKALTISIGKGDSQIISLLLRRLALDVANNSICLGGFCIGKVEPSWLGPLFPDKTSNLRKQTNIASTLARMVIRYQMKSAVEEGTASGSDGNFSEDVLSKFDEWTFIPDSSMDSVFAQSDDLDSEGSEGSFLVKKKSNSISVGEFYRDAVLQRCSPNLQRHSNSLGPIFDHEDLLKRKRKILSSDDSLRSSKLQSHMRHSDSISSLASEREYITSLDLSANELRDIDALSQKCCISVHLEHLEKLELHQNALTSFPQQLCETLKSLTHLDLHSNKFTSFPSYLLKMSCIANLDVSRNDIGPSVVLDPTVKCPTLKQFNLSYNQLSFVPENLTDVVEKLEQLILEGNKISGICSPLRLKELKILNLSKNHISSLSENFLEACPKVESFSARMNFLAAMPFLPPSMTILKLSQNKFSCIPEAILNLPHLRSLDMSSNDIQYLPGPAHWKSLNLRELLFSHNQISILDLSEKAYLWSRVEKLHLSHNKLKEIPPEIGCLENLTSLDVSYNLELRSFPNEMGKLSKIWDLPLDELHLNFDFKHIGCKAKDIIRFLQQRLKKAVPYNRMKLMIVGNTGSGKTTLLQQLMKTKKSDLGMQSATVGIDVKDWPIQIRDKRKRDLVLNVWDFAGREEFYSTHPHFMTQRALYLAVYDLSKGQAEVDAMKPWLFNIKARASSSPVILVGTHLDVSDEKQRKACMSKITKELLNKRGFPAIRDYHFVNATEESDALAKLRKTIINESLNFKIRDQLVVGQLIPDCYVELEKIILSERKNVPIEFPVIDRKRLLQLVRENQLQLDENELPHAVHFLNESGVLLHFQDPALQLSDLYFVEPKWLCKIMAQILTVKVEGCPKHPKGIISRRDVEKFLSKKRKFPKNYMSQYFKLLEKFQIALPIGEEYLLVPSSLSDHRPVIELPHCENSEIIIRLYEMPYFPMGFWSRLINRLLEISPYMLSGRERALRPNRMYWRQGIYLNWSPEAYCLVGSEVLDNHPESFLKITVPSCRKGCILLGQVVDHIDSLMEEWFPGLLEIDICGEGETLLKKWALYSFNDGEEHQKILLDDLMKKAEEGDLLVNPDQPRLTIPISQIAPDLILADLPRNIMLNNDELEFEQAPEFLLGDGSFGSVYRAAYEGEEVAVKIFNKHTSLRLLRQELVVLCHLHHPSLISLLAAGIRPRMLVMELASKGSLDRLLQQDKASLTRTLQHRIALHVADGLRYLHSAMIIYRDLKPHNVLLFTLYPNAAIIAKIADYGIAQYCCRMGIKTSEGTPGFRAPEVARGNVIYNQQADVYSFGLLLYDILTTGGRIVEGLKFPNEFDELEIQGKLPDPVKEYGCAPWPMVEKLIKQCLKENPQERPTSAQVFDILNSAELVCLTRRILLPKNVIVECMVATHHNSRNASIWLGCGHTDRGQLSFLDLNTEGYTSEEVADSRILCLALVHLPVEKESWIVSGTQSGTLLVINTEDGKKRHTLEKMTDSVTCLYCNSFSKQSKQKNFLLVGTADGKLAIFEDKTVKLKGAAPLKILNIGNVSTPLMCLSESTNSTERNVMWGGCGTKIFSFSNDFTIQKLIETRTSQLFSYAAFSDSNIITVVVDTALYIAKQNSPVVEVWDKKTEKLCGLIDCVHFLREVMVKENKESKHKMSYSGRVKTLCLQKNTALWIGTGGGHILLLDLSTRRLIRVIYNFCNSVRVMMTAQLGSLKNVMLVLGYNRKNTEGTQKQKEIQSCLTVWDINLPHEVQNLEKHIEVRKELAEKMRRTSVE
Test: LanthaScreen Kinase Activity Assay (TR-FRET), wild type LRRK2
Format: biochemical
Conditions: class symbols; 25 μM ATP, 400 nM LRRKtide, 2.9 nM kinase, 60 min at room temperature; read-out: LRRK2 WT IC50
pIC50: −log10 of the molar value.

{"COMPOUND": "Cc1cc2cncn2c(C)c1C(=O)Nc1ccc2[nH]nc(-c3ccoc3)c2c1 [Example 151]", "pIC50": "≥ 7.00"}
{"COMPOUND": "COc1ncccc1-c1n[nH]c2ccc(NC(=O)c3c(F)cc4c(cnn4C)c3F)cc12 [Example 81]", "pIC50": "6.00 to 7.00"}
{"COMPOUND": "Cc1cc2c(C)nnn2c(C)c1C(=O)Nc1ccc2[nH]nc(C)c2c1 [Example 65]", "pIC50": "5.00 to 6.00"}

###

Here, each record is paired with measured IC50 data.
Molecular target: Recombinant wild type LRRK2 protein (Homo sapiens)
Construct: purchased Life Technologies PR8604B
Assay: LanthaScreen Kinase Activity Assay (TR-FRET), wild type LRRK2
Format: biochemical
Details: class symbols; 25 μM ATP, 400 nM LRRKtide, 2.9 nM kinase, 60 min at room temperature; read-out: LRRK2 WT IC50

{"MOLECULE": "O=C(Nc1ccc2[nH]nc(-c3ccoc3)c2c1)C1CCc2nncn2C1 (single isomer, unassigned) [Example 162a]", "IC50": "≤ 100 nM"}
{"MOLECULE": "Cc1cc(-c2n[nH]c3ccc(NC(=O)c4c(F)cc5c(cnn5C)c4F)cc23)cc(C)n1 [Example 83]", "IC50": "≤ 100 nM"}
{"MOLECULE": "O=C(Nc1ccc2[nH]nc(-c3ccoc3)c2c1)c1ccn2nccc2c1 [Example 117]", "IC50": "100 to 1000 nM"}
{"MOLECULE": "O=C(Nc1ccc2[nH]nc(-c3ccoc3)c2c1)c1cnc2ccnn2c1 [Example 130]", "IC50": "100 to 1000 nM"}
{"MOLECULE": "Cn1ncc2c(F)c(C(=O)Nc3ccc4[nH]nc(-c5ccccc5O)c4c3)c(F)cc21 [Example 75]", "IC50": "1000 to 10000 nM"}
{"MOLECULE": "Cc1cccc(-c2n[nH]c3ccc(NC(=O)c4c(F)cc5c(cnn5C)c4F)cc23)c1 [Example 76]", "IC50": "≤ 100 nM"}
{"MOLECULE": "Cn1ncc2c(F)c(C(=O)Nc3ccc4[nH]nc(C5CCOC5)c4c3)c(F)cc21 (stereo not drawn) [Example 104]", "IC50": "1000 to 10000 nM"}
{"MOLECULE": "Cc1cc2cnnn2c(C)c1C(=O)Nc1ccc2[nH]nc(-c3ccoc3)c2c1 [Example 150]", "IC50": "≤ 100 nM"}
{"MOLECULE": "Cc1cc2cncn2cc1C(=O)Nc1ccc2[nH]nc(C)c2c1 [Example 145]", "IC50": "100 to 1000 nM"}
{"MOLECULE": "Cc1cc2cncn2c(C)c1C(=O)Nc1ccc2[nH]nc(C)c2c1 [Example 55]", "IC50": "1000 to 10000 nM"}
{"MOLECULE": "Cn1ncc2c1CCC(C(=O)Nc1ccc3[nH]nc(-c4ccoc4)c3c1)C2 (single isomer, unassigned) [Example 161b]", "IC50": "100 to 1000 nM"}
{"MOLECULE": "Cn1ncc2c(F)c(C(=O)Nc3ccc4[nH]nc(-c5ccno5)c4c3)c(F)cc21 [Example 137]", "IC50": "≤ 100 nM"}
{"MOLECULE": "O=C(Nc1ccc2[nH]nc(-c3ccoc3)c2c1)C1CCc2nncn2C1 (single isomer, unassigned) [Example 162b]", "IC50": "100 to 1000 nM"}
{"MOLECULE": "Cn1cnc2cc(C(=O)Nc3ccc4[nH]nc(-c5ccoc5)c4c3)ccc21 [Example 132]", "IC50": "100 to 1000 nM"}
{"MOLECULE": "Cn1nccc1-c1n[nH]c2ccc(NC(=O)c3c(F)cc4c(cnn4C)c3F)cc12 [Example 96]", "IC50": "100 to 1000 nM"}
{"MOLECULE": "Cc1cc2c(cnn2C)nc1C(=O)Nc1ccc2[nH]nc(-c3cnco3)c2c1 [Example 160]", "IC50": "≤ 100 nM"}
{"MOLECULE": "Cc1cc2nn[nH]c2cc1C(=O)Nc1ccc2[nH]nc(-c3ccncc3)c2c1 [Example 1]", "IC50": "100 to 1000 nM"}
{"MOLECULE": "CC1(C)c2nncn2CCN1C(=O)Nc1ccc2[nH]nc(-c3ccoc3)c2c1 [Example 172]", "IC50": "100 to 1000 nM"}
{"MOLECULE": "Cc1cn2cnnc2c(C)c1C(=O)Nc1ccc2[nH]nc(-c3ccccc3)c2c1 [Example 57]", "IC50": "≤ 100 nM"}
{"MOLECULE": "Cn1ncc2c(F)c(C(=O)Nc3ccc4[nH]nc(-c5cnccc5C(F)(F)F)c4c3)c(F)cc21 [Example 91]", "IC50": "1000 to 10000 nM"}
{"MOLECULE": "Cc1cc2cnnn2cc1C(=O)Nc1ccc2[nH]nc(-c3ccccc3)c2c1 [Example 43]", "IC50": "≤ 100 nM"}
{"MOLECULE": "O=C(Nc1ccc2[nH]nc(-c3ccoc3)c2c1)c1ccc2ocnc2c1 [Example 126]", "IC50": "100 to 1000 nM"}
{"MOLECULE": "Cc1cc(-c2n[nH]c3ccc(NC(=O)c4c(F)cc5c(cnn5C)c4F)cc23)ccn1 [Example 37]", "IC50": "≤ 100 nM"}
{"MOLECULE": "Cn1cc2cc(C(=O)Nc3ccc4[nH]nc(-c5cnco5)c4c3)ncc2n1 [Example 159]", "IC50": "≤ 100 nM"}
